pIC50: −log10 of the molar value.
# UniProt:P29375: pIC50 values follow
# Sequence (P29375 whole entry): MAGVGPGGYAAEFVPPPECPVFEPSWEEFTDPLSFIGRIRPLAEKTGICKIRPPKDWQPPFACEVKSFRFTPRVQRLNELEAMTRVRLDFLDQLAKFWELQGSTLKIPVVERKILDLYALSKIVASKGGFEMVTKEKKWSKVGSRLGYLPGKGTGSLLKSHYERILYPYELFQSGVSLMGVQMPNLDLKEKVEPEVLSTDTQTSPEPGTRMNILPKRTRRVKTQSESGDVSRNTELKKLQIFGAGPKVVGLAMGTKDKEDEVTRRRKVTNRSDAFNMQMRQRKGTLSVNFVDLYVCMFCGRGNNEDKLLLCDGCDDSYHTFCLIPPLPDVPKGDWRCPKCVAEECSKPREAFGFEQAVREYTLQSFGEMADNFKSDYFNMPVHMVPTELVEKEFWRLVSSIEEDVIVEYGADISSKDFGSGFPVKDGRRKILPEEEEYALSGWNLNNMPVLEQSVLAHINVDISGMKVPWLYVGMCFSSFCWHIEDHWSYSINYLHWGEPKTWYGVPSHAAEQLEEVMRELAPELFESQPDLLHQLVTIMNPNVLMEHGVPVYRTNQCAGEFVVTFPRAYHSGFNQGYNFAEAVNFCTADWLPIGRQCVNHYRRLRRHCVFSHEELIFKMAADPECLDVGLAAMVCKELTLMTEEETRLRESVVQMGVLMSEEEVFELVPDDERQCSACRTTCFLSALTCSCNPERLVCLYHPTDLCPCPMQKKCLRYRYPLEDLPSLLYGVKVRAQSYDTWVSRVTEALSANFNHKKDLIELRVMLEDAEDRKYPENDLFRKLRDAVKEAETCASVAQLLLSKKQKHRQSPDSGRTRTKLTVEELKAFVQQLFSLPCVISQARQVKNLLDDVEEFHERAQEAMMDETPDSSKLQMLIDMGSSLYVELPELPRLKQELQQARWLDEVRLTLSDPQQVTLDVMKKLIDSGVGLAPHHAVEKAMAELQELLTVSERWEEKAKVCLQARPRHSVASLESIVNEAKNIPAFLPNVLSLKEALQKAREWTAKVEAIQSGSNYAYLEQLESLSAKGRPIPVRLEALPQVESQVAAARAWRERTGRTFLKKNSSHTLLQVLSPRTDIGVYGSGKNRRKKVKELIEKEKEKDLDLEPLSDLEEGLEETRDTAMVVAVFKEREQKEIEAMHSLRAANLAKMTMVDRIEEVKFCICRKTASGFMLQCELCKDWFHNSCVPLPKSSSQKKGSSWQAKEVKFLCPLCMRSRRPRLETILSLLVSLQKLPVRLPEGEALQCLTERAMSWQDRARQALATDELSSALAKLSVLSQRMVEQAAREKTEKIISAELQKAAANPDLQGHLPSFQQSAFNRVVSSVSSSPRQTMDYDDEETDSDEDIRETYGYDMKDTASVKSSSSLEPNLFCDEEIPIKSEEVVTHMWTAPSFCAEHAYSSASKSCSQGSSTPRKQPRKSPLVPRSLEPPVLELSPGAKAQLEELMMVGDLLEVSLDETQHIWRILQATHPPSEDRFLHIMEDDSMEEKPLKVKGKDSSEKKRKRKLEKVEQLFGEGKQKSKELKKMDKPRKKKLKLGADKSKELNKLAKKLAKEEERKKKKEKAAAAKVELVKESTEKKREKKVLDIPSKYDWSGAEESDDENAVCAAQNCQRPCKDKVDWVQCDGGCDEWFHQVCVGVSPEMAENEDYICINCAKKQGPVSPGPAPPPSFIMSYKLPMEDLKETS
REPORTED METRIC: pIC50

Observe how each entry below is paired with its result.
compound="COC(=O)NC1CCN(C(=O)c2cc(C(C)C)n[nH]2)C1 (stereo not drawn)" meas_value=9.23
compound="Cc1cc(-c2cnn(C)c2)cc(C2CCN(C(=O)c3cc(-c4ccccc4)n[nH]3)C2)n1 (stereo not drawn)" meas_value=8.44
compound="CC(C)c1cc(C(=O)N2CCC(NC(=O)C3CCNC3)C2)[nH]n1 (stereo not drawn)" meas_value=7.96
compound="CC(C)c1cc(C(=O)N2CCC(n3cc(N)cn3)C2)[nH]n1 (stereo not drawn)" meas_value=8.74
compound="CC(C)c1cc(C(=O)N2CCC(NC(=O)Oc3ccccc3)C2)[nH]n1 (stereo not drawn)" meas_value=8.68
compound="CCCOc1ccccc1C(=O)NC1CCN(C(=O)c2cc(C(C)C)n[nH]2)C1 (stereo not drawn)" meas_value=10.19

P. CC(C)c1cc(C(=O)N2CCC(NC(=O)c3ncccc3F)C2)n[nH]1 (stereo not drawn)
Q. COc1cccc(C(=O)NC2CCN(C(=O)c3cc(C(C)C)n[nH]3)C2)c1 (stereo not drawn)
R. CC(O)c1cc(C(=O)N2CCC(NC(=O)C3CC3)C2)[nH]n1 (stereo not drawn)
query: List by increasing pIC50. State the ranking by listing the labels in the requested order.
result: R, P, Q
(R: 9.04, P: 9.60, Q: 9.92)
